Parameter: Ki. Scope: all listed entries.
Target: ATR kinase (full-length ATR) (Homo sapiens (Human), UniProt Q13535)
Sequence (Q13535 whole entry): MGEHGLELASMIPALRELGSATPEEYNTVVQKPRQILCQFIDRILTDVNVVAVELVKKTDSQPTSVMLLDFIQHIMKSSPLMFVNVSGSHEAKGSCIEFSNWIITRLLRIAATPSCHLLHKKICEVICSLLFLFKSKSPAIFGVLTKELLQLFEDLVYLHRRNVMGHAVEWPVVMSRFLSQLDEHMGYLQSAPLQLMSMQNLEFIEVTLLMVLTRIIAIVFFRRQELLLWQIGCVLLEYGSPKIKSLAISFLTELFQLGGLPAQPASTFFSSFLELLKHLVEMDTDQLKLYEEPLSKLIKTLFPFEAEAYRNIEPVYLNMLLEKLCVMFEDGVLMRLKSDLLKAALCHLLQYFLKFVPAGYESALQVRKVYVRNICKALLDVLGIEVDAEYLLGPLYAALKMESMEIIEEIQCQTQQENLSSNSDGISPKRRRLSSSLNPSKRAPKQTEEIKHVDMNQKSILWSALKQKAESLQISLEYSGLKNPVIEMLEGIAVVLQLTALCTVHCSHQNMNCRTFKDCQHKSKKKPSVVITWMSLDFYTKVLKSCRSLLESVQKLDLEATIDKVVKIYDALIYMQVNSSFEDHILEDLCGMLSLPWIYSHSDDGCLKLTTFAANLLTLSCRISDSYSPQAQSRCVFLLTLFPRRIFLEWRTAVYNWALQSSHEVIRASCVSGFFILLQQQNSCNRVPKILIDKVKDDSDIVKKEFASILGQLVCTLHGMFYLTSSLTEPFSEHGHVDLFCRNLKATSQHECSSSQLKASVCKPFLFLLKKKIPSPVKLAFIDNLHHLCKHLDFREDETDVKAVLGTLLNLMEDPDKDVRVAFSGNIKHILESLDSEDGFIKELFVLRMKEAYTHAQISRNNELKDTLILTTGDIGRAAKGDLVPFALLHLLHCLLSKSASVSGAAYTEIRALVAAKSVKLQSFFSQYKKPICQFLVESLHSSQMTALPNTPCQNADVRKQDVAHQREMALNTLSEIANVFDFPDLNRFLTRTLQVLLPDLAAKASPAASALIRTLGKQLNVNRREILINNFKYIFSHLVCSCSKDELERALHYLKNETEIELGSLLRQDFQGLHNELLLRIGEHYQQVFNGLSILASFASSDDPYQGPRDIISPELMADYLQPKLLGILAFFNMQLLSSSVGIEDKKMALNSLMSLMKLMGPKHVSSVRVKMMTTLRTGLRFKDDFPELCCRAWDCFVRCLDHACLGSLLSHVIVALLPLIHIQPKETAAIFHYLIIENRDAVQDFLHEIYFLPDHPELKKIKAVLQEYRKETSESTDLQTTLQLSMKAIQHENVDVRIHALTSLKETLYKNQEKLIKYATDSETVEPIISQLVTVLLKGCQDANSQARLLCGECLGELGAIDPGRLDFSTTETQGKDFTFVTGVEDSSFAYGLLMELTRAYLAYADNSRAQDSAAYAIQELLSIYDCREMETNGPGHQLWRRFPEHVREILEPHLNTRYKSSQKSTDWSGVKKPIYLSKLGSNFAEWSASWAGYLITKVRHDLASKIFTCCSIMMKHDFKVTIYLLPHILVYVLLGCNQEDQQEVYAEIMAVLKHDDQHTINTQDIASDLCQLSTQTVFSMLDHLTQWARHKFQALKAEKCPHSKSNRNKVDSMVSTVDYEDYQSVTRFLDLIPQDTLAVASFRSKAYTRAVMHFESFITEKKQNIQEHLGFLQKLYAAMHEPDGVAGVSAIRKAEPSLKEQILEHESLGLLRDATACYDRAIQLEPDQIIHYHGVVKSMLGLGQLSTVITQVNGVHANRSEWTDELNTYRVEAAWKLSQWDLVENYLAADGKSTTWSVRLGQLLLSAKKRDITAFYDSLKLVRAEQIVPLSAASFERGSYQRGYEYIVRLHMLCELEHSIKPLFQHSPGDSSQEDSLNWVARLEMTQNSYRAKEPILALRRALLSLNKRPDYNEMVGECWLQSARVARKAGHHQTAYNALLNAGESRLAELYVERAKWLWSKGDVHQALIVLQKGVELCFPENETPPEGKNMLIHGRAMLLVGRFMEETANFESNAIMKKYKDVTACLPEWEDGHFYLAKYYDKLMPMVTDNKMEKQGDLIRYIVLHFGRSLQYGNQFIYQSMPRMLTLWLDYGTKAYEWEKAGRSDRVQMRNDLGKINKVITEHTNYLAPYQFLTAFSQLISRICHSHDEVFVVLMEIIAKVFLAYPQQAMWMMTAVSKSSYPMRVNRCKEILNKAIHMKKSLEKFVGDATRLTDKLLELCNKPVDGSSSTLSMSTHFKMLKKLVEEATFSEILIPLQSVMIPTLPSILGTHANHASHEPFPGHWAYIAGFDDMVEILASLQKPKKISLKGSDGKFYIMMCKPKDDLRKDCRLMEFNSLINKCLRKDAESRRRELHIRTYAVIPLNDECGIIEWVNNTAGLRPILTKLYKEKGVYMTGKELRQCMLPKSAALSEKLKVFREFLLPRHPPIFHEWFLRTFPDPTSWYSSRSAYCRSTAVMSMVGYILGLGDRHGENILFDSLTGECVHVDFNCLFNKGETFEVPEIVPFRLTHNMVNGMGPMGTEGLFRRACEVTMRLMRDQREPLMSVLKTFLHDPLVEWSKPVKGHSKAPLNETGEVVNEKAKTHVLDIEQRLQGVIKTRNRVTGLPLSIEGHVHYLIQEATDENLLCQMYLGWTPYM
Assay: ATR inhibition assay (radioactive-phosphate incorporation)
Assay type: biochemical
Settings: Ki(app), 5 nM full-length ATR, 10 μM ATP, 25° C.

Nc1nn2cc(F)cnc2c1C(=O)Nc1cncc(C2CC2)c1N1CCN([C@H]2CCOC2)CC1 = 0.01 to 1 µM

GET Ki | system: ATR kinase (full-length ATR) (Homo sapiens (Human), UniProt Q13535) | item: CCN1CCCCC1C(=O)N1CCN(c2c(F)cncc2NC(=O)c2c(N)nn3cc(F)cnc23)CC1 (centres unmarked)
0.01 to 1 µM

Print ATR kinase (full-length ATR) (Homo sapiens (Human), UniProt Q13535) Ki for Nc1nn2cc(Cl)cnc2c1C(=O)Nc1cnccc1N1CCN2CCC[C@H]2C1 .
0.01 to 1 µM

Report value: Ki, system: ATR kinase (full-length ATR) (Homo sapiens (Human), UniProt Q13535), compound: Nc1nn2cc(Cl)cnc2c1C(=O)Nc1cnccc1N1CCNC(C(F)(F)F)C1 (centres unmarked)
0.01 to 1 µM

Quote Ki with test system ATR kinase (full-length ATR) (Homo sapiens (Human), UniProt Q13535) for CNc1cc(N2CCN(C)CC2)c(NC(=O)c2c(N)nn3cc(F)cnc23)cn1
0.01 to 1 µM
